- Tested on: MOG-G-UVW (Low Grade Glioma);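 also: after 72 h of two-drug dosing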
- Protocol summary: Bliss excess, mean over the matrix (fraction); higher = more synergy
For each of the molecules below, state its Bliss excess.
Respond with the number and no other words.

Give recorded Bliss excess. Cc1c2c(nn1C)CSCc1cc(n(C)n1)CSc1cc(c3ccccc3c1)OCCCc1c(C(=O)O)n(C)c3c-2c(Cl)ccc13 [AZD5991] + Cc1cc2ncnn2cc1Nc1ncc2c(n1)n(C1CCOCC1)c(=O)n2C [AZD7648] (first compound max 1 µM, 7x7, partner max 10 µM)
0.0048

Give recorded Bliss excess. COc1nnc2ccc(N3CCC(c4ccc(OCCN5CCN(C)C(=O)[C@H]5C)cc4)CC3)nn12 [AZD5153] + CC1(C)CCC(CN2CCN(c3ccc(C(=O)NS(=O)(=O)c4ccc(NCC5CCOCC5)c([N+](=O)[O-])c4)c(Oc4cnc5[nH]ccc5c4)c3)CC2)=C(c2ccc(Cl)cc2)C1 [Venetoclax] (first compound max 1 µM, 7x7, partner max 1 µM)
-0.0315

Give recorded Bliss excess. CN(C)CCCOc1ccc(-c2ccc3ncc4c(c3c2)n(C2CCOCC2)c(=O)n4C)cn1 [AZD0156] + CCN(CCO)CCCOc1ccc2c(Nc3cc(CC(=O)Nc4cccc(F)c4)[nH]n3)ncnc2c1 [AZD2811] (first compound max 1 µM, 7x7, partner max 1 µM)
0.045

Give recorded Bliss excess. Cc1c2c(nn1C)CSCc1cc(n(C)n1)CSc1cc(c3ccccc3c1)OCCCc1c(C(=O)O)n(C)c3c-2c(Cl)ccc13 [AZD5991] + C[C@@H](Nc1cc(F)cc(F)c1)c1cc(C(=O)N(C)C)cc2c(=O)cc(N3CCOCC3)oc12 [AZD8186] (first compound max 1 µM, 7x7, partner max 3 µM)
-0.0451

Give recorded Bliss excess. Cc1cc2ncnn2cc1Nc1ncc2c(n1)n(C1CCOCC1)c(=O)n2C [AZD7648] + CN(C)CCCOc1ccc(-c2ccc3ncc4c(c3c2)n(C2CCOCC2)c(=O)n4C)cn1 [AZD0156] (first compound max 10 µM, 7x7, partner max 1 µM)
0.0206

Give recorded Bliss excess. CN(CCO)CC[C@H](CSc1ccccc1)Nc1ccc(S(=O)(=O)NC(=O)c2ccc(N3CCC([C@@H](O)c4ccccc4-c4ccc(Cl)cc4)CC3)cc2)cc1S(=O)(=O)C(F)(F)F [AZD4320] + Cn1cnc2c(F)c(Nc3ccc(Br)cc3Cl)c(C(=O)NOCCO)cc21 [Selumetinib] (first compound max 1 µM, 7x7, partner max 3 µM)
-0.0034

Give recorded Bliss excess. CC1(C)CCC(CN2CCN(c3ccc(C(=O)NS(=O)(=O)c4ccc(NCC5CCOCC5)c([N+](=O)[O-])c4)c(Oc4cnc5[nH]ccc5c4)c3)CC2)=C(c2ccc(Cl)cc2)C1 [Venetoclax] + CN(C)CCCOc1ccc(-c2ccc3ncc4c(c3c2)n(C2CCOCC2)c(=O)n4C)cn1 [AZD0156] (first compound max 1 µM, 7x7, partner max 1 µM)
0.0408

====

- System: A4-Fuk (B-Lymphoblastic Leukemia)
- Protocol summary: combination Emax (second highest fraction inhibited in the dose matrix, 72 h); higher = more inhibition; extreme values may be limits of the assay
Measure name: combination Emax
Respond with the number and no other words.

Give recorded combination Emax. COc1nnc2ccc(N3CCC(c4ccc(OCCN5CCN(C)C(=O)[C@H]5C)cc4)CC3)nn12 [AZD5153] + Cn1cnc2c(F)c(Nc3ccc(Br)cc3Cl)c(C(=O)NOCCO)cc21 [Selumetinib] (first compound max 1 µM, 7x7, partner max 10 µM)
0.934

Give recorded combination Emax. CN(CCO)CC[C@H](CSc1ccccc1)Nc1ccc(S(=O)(=O)NC(=O)c2ccc(N3CCC([C@@H](O)c4ccccc4-c4ccc(Cl)cc4)CC3)cc2)cc1S(=O)(=O)C(F)(F)F [AZD4320] + CCN(CCO)CCCOc1ccc2c(Nc3cc(CC(=O)Nc4cccc(F)c4)[nH]n3)ncnc2c1 [AZD2811] (first compound max 1 µM, 7x7, partner max 1 µM)
0.417

Give recorded combination Emax. C=CCn1c(=O)c2cnc(Nc3ccc(N4CCN(C)CC4)cc3)nc2n1-c1cccc(C(C)(C)O)n1 [AZD1775] + C[C@@H]1COCCN1C2=NC(=NC(=C2)C3(CC3)[S@](=N)(=O)C)C4=C5C=CNC5=NC=C4 [AZD6738] (first compound max 1 µM, partner max 10 µM)
0.875

Give recorded combination Emax. CC(=O)c1c(C)c2cnc(Nc3ccc(N4CCNCC4)cn3)nc2n(C2CCCC2)c1=O [Palbociclib] + CC1(C)CCC(CN2CCN(c3ccc(C(=O)NS(=O)(=O)c4ccc(NCC5CCOCC5)c([N+](=O)[O-])c4)c(Oc4cnc5[nH]ccc5c4)c3)CC2)=C(c2ccc(Cl)cc2)C1 [Venetoclax] (first compound max 10 µM, 7x7, partner max 1 µM)
0.552

Give recorded combination Emax. COc1cccc(OCCCN)c1-c1cc(Nc2cnc(C#N)cn2)n[nH]1 [Prexasertib] + C=CCn1c(=O)c2cnc(Nc3ccc(N4CCN(C)CC4)cc3)nc2n1-c1cccc(C(C)(C)O)n1 [AZD1775] (first compound max 1 µM, partner max 1 µM)
0.906

Give recorded combination Emax. Cc1c2c(nn1C)CSCc1cc(n(C)n1)CSc1cc(c3ccccc3c1)OCCCc1c(C(=O)O)n(C)c3c-2c(Cl)ccc13 [AZD5991] + CC(=O)O[C@H]1C(=O)[C@@]2(C)[C@H]([C@H](OC(=O)c3ccccc3)[C@]3(O)C[C@H](OC(=O)[C@H](O)[C@@H](NC(=O)c4ccccc4)c4ccccc4)C(C)=C1C3(C)C)[C@]1(OC(C)=O)CO[C@@H]1C[C@@H]2O [Paclitaxel] (first compound max 1 µM, 7x7, partner max 3 µM)
1

Give recorded combination Emax. Cc1c2c(nn1C)CSCc1cc(n(C)n1)CSc1cc(c3ccccc3c1)OCCCc1c(C(=O)O)n(C)c3c-2c(Cl)ccc13 [AZD5991] + C[C@@H]1COCCN1C2=NC(=NC(=C2)C3(CC3)[S@](=N)(=O)C)C4=C5C=CNC5=NC=C4 [AZD6738] (first compound max 1 µM, 7x7, partner max 10 µM)
1

Give recorded combination Emax. CC1(C)CCC(CN2CCN(c3ccc(C(=O)NS(=O)(=O)c4ccc(NCC5CCOCC5)c([N+](=O)[O-])c4)c(Oc4cnc5[nH]ccc5c4)c3)CC2)=C(c2ccc(Cl)cc2)C1 [Venetoclax] + C=CCn1c(=O)c2cnc(Nc3ccc(N4CCN(C)CC4)cc3)nc2n1-c1cccc(C(C)(C)O)n1 [AZD1775] (first compound max 1 µM, partner max 1 µM)
0.883

Give recorded combination Emax. Cc1cc2ncnn2cc1Nc1ncc2c(n1)n(C1CCOCC1)c(=O)n2C [AZD7648] + C[C@@H]1COCCN1C2=NC(=NC(=C2)C3(CC3)[S@](=N)(=O)C)C4=C5C=CNC5=NC=C4 [AZD6738] (first compound max 10 µM, 7x7, partner max 10 µM)
0.765

Give recorded combination Emax. Cc1cc2ncnn2cc1Nc1ncc2c(n1)n(C1CCOCC1)c(=O)n2C [AZD7648] + COc1cc([C@@H]2c3cc4c(cc3[C@@H](O[C@@H]3O[C@@H]5CO[C@@H](C)O[C@H]5[C@H](O)[C@H]3O)[C@H]3COC(=O)[C@H]23)OCO4)cc(OC)c1O [Etoposide] (first compound max 10 µM, 7x7, partner max 10 µM)
0.937

Give recorded combination Emax. CCN(CCO)CCCOc1ccc2c(Nc3cc(CC(=O)Nc4cccc(F)c4)[nH]n3)ncnc2c1 [AZD2811] + O=C(c1cc(Cc2n[nH]c(=O)c3ccccc23)ccc1F)N1CCN(C(=O)C2CC2)CC1 [Olaparib] (first compound max 1 µM, 7x7, partner max 10 µM)
0.437

Give recorded combination Emax. C[C@@H]1COCCN1c1cc(C2([S@](C)(=N)=O)CC2)nc(-c2ccnc3[nH]ccc23)n1 [AZD6738] + O=C(c1cc(Cc2n[nH]c(=O)c3ccccc23)ccc1F)N1CCN(C(=O)C2CC2)CC1 [Olaparib] (first compound max 10 µM, 7x7, partner max 10 µM)
0.706

Give recorded combination Emax. CN(CCO)CC[C@H](CSc1ccccc1)Nc1ccc(S(=O)(=O)NC(=O)c2ccc(N3CCC([C@@H](O)c4ccccc4-c4ccc(Cl)cc4)CC3)cc2)cc1S(=O)(=O)C(F)(F)F [AZD4320] + CS(=O)(=O)CCNCc1ccc(-c2ccc3ncnc(Nc4ccc(OCc5cccc(F)c5)c(Cl)c4)c3c2)o1 [Lapatinib] (first compound max 1 µM, 7x7, partner max 10 µM)
0.931
